test system: SF-268 CNS; assay: NCI tumour cell line growth inhibition, 48 h
attribute measured: TGI

Below are worked cases with known answers.
compound	TGI
N#Cc1c2nc3ccccc3nc2n2ccc3ccccc3c12	> 100 µM
CC[C@]12C=CCN3CCC4(c5cc([C@@]6(C(=O)OC)CC7CN(CCc8c6[nH]c6ccccc86)C[C@@H]6CCC[C@H]76)c(OC)cc5N(C)C4[C@](O)(C(=O)OC)C1OC(C)=O)C32 (some centres undefined)	1.6 µM
O=C([O-])c1ccccc1Nc1ccccc1[O-].[Ni+3].[OH3+].[OH3+].[OH3+]	> 100 µM
Cc1nc2cc(N)c(Cl)cc2[nH]1	> 100 µM
CC1(C)CC[C@]2(C(=O)O)CC[C@]3(C)C(=CC[C@@H]4[C@@]5(C)CC[C@H](OC6OC(CO)C(O)C(O)C6OC6OC(CO)C(O)C(O)C6O)C(C)(C)[C@@H]5CC[C@]43C)[C@@H]2C1 (some centres undefined)	32 µM

Write down TGI measured for item O=C(Nc1ccc(Br)cc1F)c1cc(Br)ccc1O
11.6 µM

Write down TGI measured for item O=CC1(C2(C=O)c3ccccc3-c3ccccc32)c2ccccc2-c2ccccc21
6.03 µM

Write down TGI measured for item Cc1cc(C#N)c(Nc2c(C)cccc2[N+](=O)[O-])s1
84.9 µM

Write down TGI measured for item CC1(C)C2CCC1(CC(=O)O)C(Cl)C2 (centres undefined)
> 100 µM
